Where do the numbers come from? From the supplement of paper PMC5908809.

Tested on: normal primary NK cells, pool 1 (3 donors), resting (IL-2 0 ng/mL)
assay method text: percent inhibition of viability; higher = more inhibition;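 further: normalised to DMSO-only wells as negative and benzethonium chloride as positive control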
setup conditions: 72 h; 10000 nM
assay endpoint: percent inhibition of viability (%)
One number for each entry, in %.

CN1CCN(c2ccc3nc(-c4c(N)c5c(F)cccc5[nH]c4=O)[nH]c3c2)CC1 [Dovitinib] (max concentration tested 10000 nM)	53.9
COc1ccc(C2=N[C@@H](c3ccc(Cl)cc3)[C@@H](c3ccc(Cl)cc3)N2C(=O)N2CCNC(=O)C2)c(OC(C)C)c1 [Nutlin-3] (max concentration tested 10000 nM)	93.8

Value sought for every listed compound: percent inhibition of viability.
1. N#Cc1ccc(C(c2ccc(C#N)cc2)n2cncn2)cc1 [Letrozole] (max concentration tested 10000 nM)
2. Nc1ccccc1NC(=O)c1ccc(CNC(=O)OCc2cccnc2)cc1 [Entinostat] (max concentration tested 10000 nM)
3. Cc1ccc(-c2cc(C(F)(F)F)nn2-c2ccc(S(N)(=O)=O)cc2)cc1 [Celecoxib] (max concentration tested 10000 nM)
4. CNC(=O)c1cccc(-c2ccc3c(N4CCOC[C@@H]4C)nc(N4CCOC[C@@H]4C)nc3n2)c1 [AZD2014] (max concentration tested 10000 nM)

1: 7.77; 2: 92.3; 3: 38.8; 4: 45.9

---

Tested on: normal primary NK cells, pool 3 (3 donors) (IL-2 2.5 ng/mL)
assay method text: percent inhibition of viability; higher = more inhibition
setup conditions: 72 h; 1 nM
Provide the reported percent inhibition of viability of each item.
Answers are plain numbers, in %.

// solved cases for percent inhibition of viability follow
Cc1cc(C)c(CNC(=O)c2cc(-c3ccc(CN4CCOCC4)cc3)cc3c2cnn3C2CCCC2)c(=O)[nH]1 [EPZ-5687] (max concentration tested 10000 nM)	-6.45
CN(C)CCOc1ccc(/C(=C(/CCCl)c2ccccc2)c2ccccc2)cc1 [Toremifene] (max concentration tested 10000 nM)	-2.58
CCCS(=O)(=O)Nc1ccc(F)c(C(=O)c2c[nH]c3ncc(-c4ccc(Cl)cc4)cc23)c1F [Vemurafenib] (max concentration tested 10000 nM)	0.76
COc1cc(N2CCC(N3CCN(C)CC3)CC2)ccc1Nc1ncnc(Nc2ccccc2S(=O)(=O)C(C)C)n1 [ASP3026] (max concentration tested 10000 nM)	1.7
O=C(/C=C/c1cccc(S(=O)(=O)Nc2ccccc2)c1)NO [Belinostat] (max concentration tested 10000 nM)	-2.35

Now for the molecule whose percent inhibition of viability we want.
Specify reported percent inhibition of viability for the molecule shown: O=C1CN2Cc3c(ccc(Cl)c3Cl)N=C2N1 [Anagrelide] (max concentration tested 10000 nM)
-7.45

---

Provide the reported percent inhibition of viability of each item.
Test system: IMC-1 (IL-2 20 ng/mL)
assay method text: percent inhibition of viability; higher = more inhibition
setup conditions: 72 h; 100 nM
Units required after the number.

Value sought for every listed compound: percent inhibition of viability.
1. Cc1cc(C)c(/C=C2\C(=O)Nc3ccccc32)[nH]1 [Semaxanib] (max concentration tested 10000 nM)
2. COCC[n+]1c2c(n(Cc3cnccn3)c1C)C(=O)c1ccccc1C2=O [YM155] (max concentration tested 10000 nM)
3. CC(C)c1cc(-c2n[nH]c(=O)n2-c2ccc3c(ccn3C)c2)c(O)cc1O [Ganetespib] (max concentration tested 1000 nM)
4. C[C@@]1(C(=O)Nc2ccc(F)nc2)CCCN1c1nc(Nc2cc(C3CC3)n[nH]2)c2cccn2n1 (max concentration tested 10000 nM)
5. C[C@]1(c2nc3c(C(N)=O)cccc3[nH]2)CCCN1 [Veliparib] (max concentration tested 10000 nM)
6. CC(C)(C)c1cc(NC(=O)Nc2ccc(-c3cn4c(n3)sc3cc(OCCN5CCOCC5)ccc34)cc2)no1 [Quizartinib] (max concentration tested 1000 nM)

1. -5.66%
2. 100%
3. 99.7%
4. 0.07%
5. 0.37%
6. -2.42%

Value sought for every listed compound: percent inhibition of viability.
1. CO[C@H]1C[C@@H]2CC[C@@H](C)[C@@](O)(O2)C(=O)C(=O)N2CCCC[C@H]2C(=O)O[C@H]([C@H](C)C[C@@H]2CC[C@@H](OP(C)(C)=O)[C@H](OC)C2)CC(=O)[C@H](C)/C=C(\C)[C@@H](O)[C@@H](OC)C(=O)[C@H](C)C[C@H](C)/C=C/C=C/C=C/1C [Ridaforolimus] (max concentration tested 100 nM)
2. CNC(=O)c1ccc(-c2cnc3ncc(Cc4ccc5ncccc5c4)n3n2)cc1F [NVP-INC280] (max concentration tested 1000 nM)
3. Cn1cc(-c2ccc3nnc(C(F)(F)c4ccc5ncccc5c4)n3n2)cn1 (max concentration tested 10000 nM)
4. COc1cccc2cc(-c3nc([C@H]4CC[C@H](C(=O)O)CC4)n4ncnc(N)c34)[nH]c12 [OSI-027] (max concentration tested 10000 nM)
5. Clc1ccc(C(c2ccccc2Cl)C(Cl)Cl)cc1 (configuration not stated) [Mitotane] (max concentration tested 10000 nM)
6. COc1cc2c(Oc3ccc4[nH]c(C)cc4c3F)ncnc2cc1OCCCN1CCCC1 [Cediranib] (max concentration tested 1000 nM)

1. -38.3%
2. 10.2%
3. 7.99%
4. -6.31%
5. -9%
6. 8.28%
